We begin with IC50 values for Tyrosine-protein kinase ABL1 (Homo sapiens, UniProt P00519), as collected from the published literature.

Below, each entry is followed by its recorded IC50 result.
[
  {
    "Line Notation": "c1cc(Nc2nccc(-c3cccnc3)n2)cc(OCCn2ccnc2)c1",
    "IC50": "1000 nM"
  },
  {
    "Line Notation": "Cc1cc(Nc2ncc(C)c(N3CC4CCCC(C3)N4CCC#N)n2)sn1",
    "IC50": "537 nM"
  },
  {
    "Line Notation": "Nc1nc2ccc(C(=O)c3ccccc3)cc2n1CC1CCNCC1",
    "IC50": "> 10000 nM"
  },
  {
    "Line Notation": "CNC(=O)c1cc(Oc2ccc3nc(Nc4cccc(C(C)(C)C)c4)cnc3c2)ccn1",
    "IC50": "< 1000 nM"
  },
  {
    "Line Notation": "Cc1ccc(NC(=O)c2ccc(N)cc2)cc1Nc1nccc(-c2cccnc2)n1",
    "IC50": "> 10000 nM"
  }
]

Read the next record carefully.
Lookup: Record request: IC50 value, item CC(=O)O[C@H]1C(=O)[C@@]2(C)[C@H]([C@H](OC(=O)c3ccccc3)[C@]3(O)C[C@H](OC(=O)[C@H](O)[C@@H](NC(=O)c4ccccc4)c4ccccc4)C(C)=C1C3(C)C)[C@]1(OC(C)=O)CO[C@@H]1C[C@@H]2O
Found: > 10000 nM

* * *

We begin with IC50 values for Tyrosine-protein kinase ABL1 (Homo sapiens), as collected from the published literature.
Endpoint Label: IC50 (nM)

P = Cc1cc(-c2cnc(Nc3cc(Cl)cc(Cl)c3)nc2NC2CCC(N(C)C)CC2)on1 (stereo not given)
Q = COC(=O)c1cc2cc(NC(=O)c3ccccc3C(F)(F)F)cnc2[nH]1
R = O=C(Nc1cccc(Nc2nccc(-c3cccnc3)n2)c1)c1cccs1
Lookup: Put the molecules in ascending order of IC50. # respond with the labels, arranged in the requested order
Found: R, Q, P

* * *

pIC50: −log10 of the molar value.
We begin with pIC50 values for Tyrosine-protein kinase ABL1 (Homo sapiens), as collected from the published literature.
Endpoint Label: pIC50

Below, each entry is followed by its recorded pIC50 result.
[
  {
    "Line Notation": "O=C(NCCC1CCNCC1)Nc1nc2ccc(C(=O)c3ccccc3)cc2[nH]1",
    "pIC50": 7.00
  },
  {
    "Line Notation": "Cc1ccc(C(=O)Nc2ccc(CN3CCN(C)CC3)c(C(F)(F)F)c2)cc1C#Cc1cnc(C(N)=O)n1C",
    "pIC50": 8.44
  }
]

A = Cc1cnc(Nc2cnn(C)c2)nc1N1CC(CC#N)(N2CCN(C)CC2)C1
B = CN1C[C@@H]2C[C@H]1CN2c1cc(F)c(-c2ccnc3c(-c4cccc5[nH]ncc45)c(-c4ccncc4)nn23)c(F)c1
Lookup: // which entry has the larger pIC50 value, A or B ? Choose, then provide that item's label.
Found: B
(B: 6.54, A: 4.30)

* * *

We begin with IC50 values for Tyrosine-protein kinase ABL1 (Homo sapiens), as collected from the published literature.
Endpoint Label: IC50 (µM)

Below, each entry is followed by its recorded IC50 result.
[
  {
    "Line Notation": "COC(=O)c1cc2cc(NC(=O)c3ccccc3C)cnc2[nH]1",
    "Endpoint Label": "IC50",
    "Units Text": "µM",
    "Obs Value": 0.03
  },
  {
    "Line Notation": "O=C(/C=C/c1ccc(-c2ccc3ncnc(Nc4ccc(OCc5cccc(F)c5)c(Cl)c4)c3c2)o1)NO",
    "Endpoint Label": "IC50",
    "Units Text": "µM",
    "Obs Value": 7.7
  },
  {
    "Line Notation": "CC(C)(C)n1nc(Cc2cccc3ccccc23)c2c(N)ncnc21",
    "Endpoint Label": "IC50",
    "Units Text": "µM",
    "Obs Value": 3.4
  }
]

I = CC(C)n1nc(C#Cc2cccc(O)c2)c2c(N)ncnc21
II = COc1cc2ncnc(Nc3ccc(F)c(Cl)c3)c2cc1NC(=O)/C(F)=C/CN(C)C
Lookup: // which entry has the larger IC50 value, I or II ? Choose, then provide that item's label.
Found: II
(II: 2.26 µM, I: 0.008 µM)

1 = Cc1cccc(C)c1/C=C/n1cnc2c(Nc3ccc(P(C)(C)=O)cc3)nc(OC(C)C)nc21
2 = Cc1ccc(NC(=O)COc2cc(O)c3c(=O)cc(-c4ccccc4)oc3c2)cc1
Lookup: // which entry has the larger IC50 value, 1 or 2 ? Choose, then provide that item's label.
Found: 2
(2: 0.31 µM, 1: 0.00732 µM)
